Source: PubChem BioAssay AID651581

TEST TARGET: Hypoxia-inducible factor 1-alpha (Homo sapiens)
ASSAY PROCEDURE: HIF-2a and HIF-1a reporter inhibition panel, dose response, selectivity assay for HIF-2a inhibitor project, cell-based, luminescence (AID 651581)
CONDITION NOTES: HIF-1a, run 1
QUANTITY NAME: IC50 (µM)

1) COC(=O)COc1ccc(-c2nccc(-c3ccccn3)n2)cc1; 0.274
2) c1c2c(cc3sc(N4CCOCC4)nc13)OCCO2; 11.3
3) O=C(O)c1cccc(COc2ccccc2Cl)c1; 17.8
4) Cc1nc2cc(-c3ccc(Cl)cc3)nn2c(C)c1CCC(=O)NCc1ccco1; 3.16
5) O=C1C=CC(=O)N1c1ccccc1N1C(=O)C=CC1=O; 40.9
6) CSC(SC)=C(C#N)C(=O)c1ccccc1; 21.3
7) COc1ccc(-c2cnc3c(NC=O)cc(-c4cccc(NS(C)(=O)=O)c4)cn23)cc1OC; 30.3
8) COc1ccc(CNC(=O)CCc2c(C)nc3cc(-c4ccccc4OC)nn3c2C)cc1; 26.8

* * *

TEST TARGET: Endothelial PAS domain-containing protein 1 (Homo sapiens)
ASSAY PROCEDURE: HIF-2a and HIF-1a reporter inhibition panel, dose response, selectivity assay for HIF-2a inhibitor project, cell-based, luminescence (AID 651581)
CONDITION NOTES: HIF-2a, mean of runs
Activity calls are given as the source filed them. No rule for the calls is given here.
Classes used: active, inactive

1) CCOc1ccc(OCc2cccc(C(=O)N/N=C/c3cccnc3)c2)cc1; active
2) CCOC(=O)c1c(C)nn(-c2ccc(NC(=O)c3c(C)noc3C)cc2)c1C; active
3) CC(=O)Nc1ccc(OC(=O)N2CCCCC2)cc1; active
4) CCS(=O)(=O)c1ncc(Cl)c(C(=O)Nc2ccc(C)cc2)n1; inactive
5) O=[N+]([O-])C1C(c2ccccc2)C12c1ccccc1-c1ccccc12 (stereo unspecified); active
6) O=C(c1ccccc1)N1CCSc2sccc2C1=O; active

* * *

TEST TARGET: Endothelial PAS domain-containing protein 1 (Homo sapiens) (UniProt Q99814)
ASSAY PROCEDURE: HIF-2a and HIF-1a reporter inhibition panel, dose response, selectivity assay for HIF-2a inhibitor project, cell-based, luminescence (AID 651581)
CONDITION NOTES: HIF-2a PANC, run 1
IC50: recorded values
QUANTITY NAME: IC50 (µM)

1) O=c1[nH]c2ccc(Br)cc2c(=O)o1; 36.4
2) Cc1ccc(Oc2ccc(OCC(=O)Nc3ccncc3)cc2)cc1; 3.76
3) CCNC(=O)NC(=O)COC(=O)CCCSc1nc2ccccc2s1; 10.8
4) Cc1nc(SCCC(=O)O)c2cc(-c3ccccc3)sc2n1; 1.02
5) CCN(CC)CCCC(C)n1c2nc(=O)[nH]c(=O)c-2nc2cc(Cl)ccc21 (centres undefined); 2.56
6) Cc1csc(NC(=O)c2cn3ccccc3n2)n1; 20.3
7) O=C(c1ccccc1)c1cc(Cl)ccc1N1C(=O)C=CC1=O; 25.3
8) Cc1c(CCC(=O)N2CCC(C(=O)O)(c3ccccc3)CC2)c(=O)oc2cc3oc4c(c3cc12)CCCC4; 3.77
9) CC(=O)c1ccc(NC(=O)c2cnn3ccccc23)cc1; 20.3
10) Cc1cccc(NC(=S)NNc2ncc(C(F)(F)F)cc2Cl)c1; 2.31
11) CCS(=O)(=O)c1ncc(Cl)c(C(=O)Nc2ccc(C)cc2)n1; 30.4
12) Cc1c(CCC(=O)N2CCC[C@H]2C(=O)O)c(=O)oc2c(C)c3oc4c(c3cc12)CCCC4; 1.8
13) CCOc1ccc(C(=O)Nc2nnc(SCC(=O)NCC3CCCO3)s2)cc1 (centres undefined); 21
